Test system: Mus musculus
assayMethodText: % bioavailability in mice after oral administration of prodrug
Type: ADME, organism-based
condition: in vivo
propertyName: F% (%)
Answers are plain numbers, in %.

Working through the 3 compounds below one at a time, give F% for each.
1. Nc1ncnc2c1ncn2OCCOCP(=O)(OCC(Cl)Cl)OCC(Cl)Cl
2. CC(=O)Oc1ccccc1OP(=O)(COCCOn1cnc2c(N)ncnc21)Oc1ccccc1OC(C)=O
3. CC(C)OP(=O)(COCCOn1cnc2c(N)ncnc21)OCC(=O)OC(C)(C)C (stereo not drawn)

Data returned:
1. 6
2. 10
3. 0
